# Assay name: in vivo
# Run parameters: female, New Zealand white, rabbit, 8 mg/kg
# Experimental: All animal procedures were approved by the Institutional Animal Care and Use Committee at The University of Texas Health Science Center at Tyler (IACUC protocols 499,616,617). […] Accumulation of pleural fluid and fibrin deposition was monitored using ultrasonography; detailed in the ultrasonography subsection. […] Animals were monitored carefully for signs of distress, pain, and worsening clinical status. […] The residual DSP in pleural fluid samples was determined using LC MS/MS. […]
Where no end group is shown, it is not given here.
Measured attribute: level at 40 min

query: Item EEIIMD [DSP, EEIIMD] has what recorded level at 40 min?
result: > 300 µg/mL
